List of RLU values.
biological target: T1, human apical domain of CD71 (human, UniProt P02786 189-383, limits assumed); assay: primary ELISA; note: test concentration or dose not given here
T1 construct: domain: apical domain
T1 sequence (P02786 189-383 limits assumed): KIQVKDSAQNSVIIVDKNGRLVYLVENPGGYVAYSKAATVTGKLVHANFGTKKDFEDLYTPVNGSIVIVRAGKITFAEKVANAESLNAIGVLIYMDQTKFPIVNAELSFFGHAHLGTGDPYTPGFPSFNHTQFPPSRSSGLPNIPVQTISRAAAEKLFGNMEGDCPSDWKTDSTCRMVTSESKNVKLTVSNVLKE
In your response, put the unit directly after the numeric value.

binder="CD71-binding FN3 domain SEQ ID NO 387 (designed binder) MLPAPKNLVVSRVTEDSARLSWTAPDAAFDSFFIGYLEPQPPGEAIHLVVPGSERSYDLTGLKPGTEYNVTIQGVKGGFPSDPLYAWFTT" observed_measurement="3.88e+06 RLU"

Okay, next one:
// RLU lookup, key: CD71-binding FN3 domain SEQ ID NO 432 (designed binder) MLPAPKNLVVSRVTEDSARLSWTAPDAAFDSFFIGYLEPQPPGEAIALYVPGSERSYDLTGLKPGTEYNVTIQGVKGGFPSGPLEAYFTT
3.11e+06 RLU

Entry source: patent US20260151494A1
